protocol.summary: In vitro clearance in dog liver microsomes
Format: ADME, Canis lupus familiaris, Microsome
parameter.measured: Clearance (mL/min/kg)

smi: C[C@H](O)[C@@H](CCc1cccc(Cl)c1Cl)n1cnc(C(N)=O)c1
quantitative.readout: 21

smi: C[C@H](O)[C@@H](CCc1cccc2oc(-c3ccc(Cl)cc3)nc12)n1cnc(C(N)=O)c1
quantitative.readout: 6.2

smi: C[C@H](O)[C@@H](CCc1cccc2nc(-c3ccc(Cl)cc3)oc12)n1cnc(C(N)=O)c1
quantitative.readout: 6

smi: C[C@H](O)[C@@H](CCc1cccc2ccccc12)n1cnc(C(N)=O)c1
quantitative.readout: 30

---

protocol.summary: In vitro clearance in rat liver microsomes
Type: ADME, Microsome
condition.set: read-out: Clearance

smi: C[C@H](O)[C@@H](CCc1cccc2nc(-c3ccc(Cl)cc3)oc12)n1cnc(C(N)=O)c1
CLint scaled (mL/min/kg): 131
--
smi: C[C@H](O)[C@@H](CCc1cccc2oc(-c3ccc(Cl)cc3)nc12)n1cnc(C(N)=O)c1
CLint scaled (mL/min/kg): 50
--
smi: Cn1cc(CC[C@H](CO)n2cnc(C(N)=O)c2)c2cc(OCCCc3ccc(Cl)cc3)ccc21
CLint scaled (mL/min/kg): 643
